- Measured Target: human TLR8 (Homo sapiens (Human), UniProt Q9NR97)
- Sequence (Q9NR97 27-1041): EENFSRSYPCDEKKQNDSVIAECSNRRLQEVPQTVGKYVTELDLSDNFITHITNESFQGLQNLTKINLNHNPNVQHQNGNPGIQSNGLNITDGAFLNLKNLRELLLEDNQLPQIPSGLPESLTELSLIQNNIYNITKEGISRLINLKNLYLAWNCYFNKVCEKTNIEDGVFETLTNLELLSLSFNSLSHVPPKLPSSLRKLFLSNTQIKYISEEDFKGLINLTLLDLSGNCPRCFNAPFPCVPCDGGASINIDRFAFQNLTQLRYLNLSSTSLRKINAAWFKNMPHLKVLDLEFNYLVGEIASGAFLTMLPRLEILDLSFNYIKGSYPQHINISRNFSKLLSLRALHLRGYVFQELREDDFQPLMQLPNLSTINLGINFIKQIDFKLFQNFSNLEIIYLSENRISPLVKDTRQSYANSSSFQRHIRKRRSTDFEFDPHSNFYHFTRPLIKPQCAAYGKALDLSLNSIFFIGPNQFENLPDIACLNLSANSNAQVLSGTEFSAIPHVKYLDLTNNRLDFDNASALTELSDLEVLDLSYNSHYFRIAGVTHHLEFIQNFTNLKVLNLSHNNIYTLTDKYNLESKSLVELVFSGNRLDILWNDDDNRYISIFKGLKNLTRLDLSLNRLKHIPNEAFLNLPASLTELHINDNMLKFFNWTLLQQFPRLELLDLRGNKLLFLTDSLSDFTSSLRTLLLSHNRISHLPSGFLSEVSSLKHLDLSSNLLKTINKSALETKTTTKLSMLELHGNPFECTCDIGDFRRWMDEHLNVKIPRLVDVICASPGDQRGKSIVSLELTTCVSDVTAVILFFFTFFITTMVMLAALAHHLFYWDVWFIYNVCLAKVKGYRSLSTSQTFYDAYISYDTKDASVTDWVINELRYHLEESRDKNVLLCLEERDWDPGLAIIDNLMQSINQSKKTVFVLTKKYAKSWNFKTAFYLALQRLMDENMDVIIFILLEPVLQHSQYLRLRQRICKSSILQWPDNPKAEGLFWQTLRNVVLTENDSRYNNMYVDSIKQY
- Assay Overview: TLR8 inhibition reporter assay (HEK-Blue, SEAP)
- Format: cell-based
- Assay Conditions: HEK-Blue cells overexpressing human TLR8, R848 15.9 μM stimulation
Property: pIC50
Remember the convention: pIC50 equals -log10 of concentration in molar.

>  <Compound>
CNC(=O)CN1CCC(c2nnc(-c3ccc4[nH]c(-c5ccc(OC)c(OC)c5)c(C(C)C)c4c3)o2)CC1

>  <pIC50>
7.37

$$$$

// query Look up pIC50 for this compound: `CN[C@@H](C)c1nnc(-c2ccc3[nH]c(-c4ccc(OC)c(OC)c4)c(C(C)C)c3c2)o1`
// result 7.96

// query Also check `CNCC(=O)Nc1cnc(-c2ccc3[nH]c(-c4cc(C)nc(C)c4)c(C(C)C)c3c2)cn1`
// result 8.34

// query Also check `COc1ccc(-c2[nH]c3ccc(-c4cnc(N5CCN(C(C)C)CC5)cc4C)cc3c2C(C)C)cc1OC`
// result 8.33

// query Also check `Cc1cc(-c2[nH]c3ccc(-c4nnc(C5CCN(CC(=O)N(C)C)CC5)o4)cc3c2C(C)C)ccn1`
// result 8.54

// query Also check `COc1ccc(-c2[nH]c3ccc(-c4nnc(C(=O)N5CCC(N6CCCC6)CC5)o4)cc3c2C(C)C)cc1OC`
// result 7.68

// query Also check `Cc1cc(-c2[nH]c3ccc(-c4nnc([C@@H]5Cc6ccccc6CN5)o4)cc3c2C(C)C)ccn1`
// result 7.14

// query Also check Cc1cc(-c2[nH]c3ccc(-c4nc(C(=O)NCC5CCCCN5)co4)cc3c2C(C)C)cc(C)n1 (stereo not drawn)
// result 8.18

// query Also check `CC(C)c1c(-c2ccnc3[nH]ncc23)[nH]c2ccc(-c3cccc4cnccc34)cc12`
// result 7.25

// query Also check `COc1ccc(-c2[nH]c3ccc(-c4nnc(CN5CCC[C@H]5C(N)=O)o4)cc3c2C(C)C)cc1OC`
// result 6.55

// query Also check `Cc1cc(-c2[nH]c3ccc(-c4ccc(N5CCC5)nc4)cc3c2C(C)C)cc(C)n1`
// result 7.51

// query Also check `CC(C)c1c(-c2ccc3ncnn3c2)[nH]c2ccc(-c3nnc([C@@H]4CCCNC4)o3)cc12`
// result 8.03

// query Also check `COc1ccc(-c2[nH]c3ccc(-c4ccc(OC5CCN(C(C)C)CC5)cc4)cc3c2C(C)C)cc1OC`
// result 6.90

====

Documented IC50 across a set of compounds
- Measured Target: human TLR9 (Homo sapiens (Human), UniProt Q9NR96)
- Sequence (Q9NR96 26-1032): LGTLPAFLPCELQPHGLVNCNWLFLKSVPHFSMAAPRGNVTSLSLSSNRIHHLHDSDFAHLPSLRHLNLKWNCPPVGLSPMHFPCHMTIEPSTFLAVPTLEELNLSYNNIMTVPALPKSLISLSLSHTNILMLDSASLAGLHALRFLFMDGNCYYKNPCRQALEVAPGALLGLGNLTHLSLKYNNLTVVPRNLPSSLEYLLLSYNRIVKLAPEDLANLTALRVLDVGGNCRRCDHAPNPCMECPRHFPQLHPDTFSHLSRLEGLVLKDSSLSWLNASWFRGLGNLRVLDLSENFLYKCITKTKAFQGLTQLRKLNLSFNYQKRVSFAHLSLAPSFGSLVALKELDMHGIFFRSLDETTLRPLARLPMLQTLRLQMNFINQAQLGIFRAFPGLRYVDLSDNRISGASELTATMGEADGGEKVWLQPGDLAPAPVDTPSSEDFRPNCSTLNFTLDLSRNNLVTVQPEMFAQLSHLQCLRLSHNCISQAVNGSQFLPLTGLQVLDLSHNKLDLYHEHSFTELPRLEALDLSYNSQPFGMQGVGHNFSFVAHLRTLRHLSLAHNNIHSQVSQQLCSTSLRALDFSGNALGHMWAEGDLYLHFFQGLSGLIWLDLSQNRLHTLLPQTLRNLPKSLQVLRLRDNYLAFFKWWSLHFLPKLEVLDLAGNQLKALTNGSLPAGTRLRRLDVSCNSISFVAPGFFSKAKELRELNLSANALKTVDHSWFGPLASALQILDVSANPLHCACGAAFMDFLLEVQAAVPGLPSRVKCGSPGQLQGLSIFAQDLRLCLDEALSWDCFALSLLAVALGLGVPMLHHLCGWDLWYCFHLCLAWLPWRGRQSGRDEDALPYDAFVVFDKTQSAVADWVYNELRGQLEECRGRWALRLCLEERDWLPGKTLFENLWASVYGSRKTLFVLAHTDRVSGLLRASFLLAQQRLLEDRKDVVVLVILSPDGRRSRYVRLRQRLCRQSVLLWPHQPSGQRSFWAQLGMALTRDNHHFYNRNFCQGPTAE
- Assay Overview: TLR9 inhibition reporter assay (HEK-Blue, SEAP)
- Assay Conditions: HEK-Blue cells overexpressing human TLR9, ODN2006 5 nM stimulation
Return type: number; implicit unit nM.

Solved cases (4 shown):
>  <Compound>
COc1ccc(-c2[nH]c3ccc(-c4ccc(N5CCCN(C)CC5)cc4)cc3c2C(C)C)cc1OC [Example 380]

>  <Value Units>
nM

>  <Numeric Value>
2920

$$$$
>  <Compound>
Cc1cc(-c2[nH]c3ccc(-c4ccc(NC(=O)C(F)(F)F)nc4)cc3c2C(C)C)ccn1 [Example 295]

>  <Value Units>
nM

>  <Numeric Value>
17900

$$$$
>  <Compound>
COc1ccc(-c2[nH]c3ccc(-c4ccc(OCCCN(C)C)nc4)cc3c2C(C)C)cc1OC [Example 421]

>  <Value Units>
nM

>  <Numeric Value>
2750

$$$$
>  <Compound>
Cc1cc(-c2[nH]c3ccc(-c4ccnc(N5CCNCC5)c4)cc3c2C(C)C)cc(C)n1 [Example 320]

>  <Value Units>
nM

>  <Numeric Value>
2970

$$$$

Proceeding to the next compound to report its IC50.
// query Look up IC50 for this compound: COc1ccc(-c2[nH]c3ccc(-c4ccnc(N5CCN(C6CCCC6)CC5)c4)cc3c2C(C)C)cc1OC [Example 426]
// result 1450
